Assay: Approximate solubility of starting material at RT in 20 solvents
Format: physicochemical
Conditions: organic solvent or mixture, MIBK
OBSERVED_PROPERTY: solubility

{"columns": ["SMILES_INPUT", "OBSERVED_PROPERTY", "MEAS_VALUE"],
 "data": [
  ["CCCCC1(CCCC)CS(=O)(=O)c2ccc(N(C)C)cc2[C@@H](c2ccc(O)cc2)[C@H]1O", "solubility", "21 to 43 mg/mL"]
]}

Exercise: Form field: reported solubility of CCCCC1(CCCC)CS(=O)(=O)c2ccc(N(C)C)cc2[C@@H](c2ccc(OC)cc2)[C@H]1O
Key: > 50 mg/mL

====

Assay: Approximate solubility of starting material at RT in 20 solvents
Assay type: physicochemical
Details: organic solvent or mixture, MeTHF
Listing of entries alongside the reported solubility.

Exercise: # lookup: solubility of CCCCC1(CCCC)CS(=O)(=O)c2ccc(N(C)C)cc2[C@@H](c2ccc(O)cc2)[C@H]1O
Key: 21 to 42 mg/mL

Exercise: Bench note: what solubility did CCCCC1(CCCC)CS(=O)(=O)c2ccc(N(C)C)cc2[C@@H](c2ccc(OC)cc2)[C@H]1O show?
Key: > 56 mg/mL

====

Recorded solubility, one value per entry.
Experiment: Approximate solubility of starting material at RT in 20 solvents
Format: physicochemical
Settings: organic solvent or mixture, MTBE

{"columns": ["SMILES_INPUT", "solubility"],
 "data": [
  ["CCCCC1(CCCC)CS(=O)(=O)c2ccc(N(C)C)cc2[C@@H](c2ccc(OC)cc2)[C@H]1O", "9300 to 28000 µg/mL"]
]}

Exercise: Consider the compound CCCCC1(CCCC)CS(=O)(=O)c2ccc(N(C)C)cc2[C@@H](c2ccc(O)cc2)[C@H]1O and give its measured solubility.
Key: 2400 to 8000 µg/mL

====

// reported solubility for each item listed
Test: Approximate solubility of starting material at RT in 20 solvents
Type: physicochemical
Conditions: organic solvent or mixture, Pentane

{"columns": ["SMILES_INPUT", "solubility"],
 "data": [
  ["CCCCC1(CCCC)CS(=O)(=O)c2ccc(N(C)C)cc2[C@@H](c2ccc(OC)cc2)[C@H]1O", "< 2700 µg/mL"]
]}

Could you now look at the following compound, please?
Exercise: Reported solubility, compound CCCCC1(CCCC)CS(=O)(=O)c2ccc(N(C)C)cc2[C@@H](c2ccc(O)cc2)[C@H]1O : ____
Key: < 2700 µg/mL

====

Here, each record is paired with measured solubility data.
Experiment: Approximate solubility of starting material at RT in 20 solvents
Assay type: physicochemical
Conditions: organic solvent or mixture, MeOH

{"columns": ["SMILES_INPUT", "solubility"],
 "data": [
  ["CCCCC1(CCCC)CS(=O)(=O)c2ccc(N(C)C)cc2[C@@H](c2ccc(OC)cc2)[C@H]1O", "29 to 58 mg/mL"]
]}

Exercise: Dear colleague, I am looking for the recorded solubility of the following molecule: CCCCC1(CCCC)CS(=O)(=O)c2ccc(N(C)C)cc2[C@@H](c2ccc(O)cc2)[C@H]1O
Key: 7.3 to 22 mg/mL

====

Quick list: solubility per entry.
Experiment: Approximate solubility of starting material at RT in 20 solvents
Format: physicochemical
Conditions: organic solvent or mixture, n-Butyl Acetate
Experimental: The approximate solubility of compound of Formula I (starting material, prepared as described above) was measured at RT in 20 different solvents. Approximately 2 mg of starting material were added into a 3-mL glass vial. […] The approximate solubility of compound of Formula II (starting material) was determined at RT in 20 different solvents. […]

{"columns": ["SMILES_INPUT", "solubility"],
 "data": [
  ["CCCCC1(CCCC)CS(=O)(=O)c2ccc(N(C)C)cc2[C@@H](c2ccc(OC)cc2)[C@H]1O", "> 56 mg/mL"]
]}

Now let's try a different one.
Exercise: GET /values?readout=solubility&item= CCCCC1(CCCC)CS(=O)(=O)c2ccc(N(C)C)cc2[C@@H](c2ccc(O)cc2)[C@H]1O
Key: 8.3 to 25 mg/mL

====

Each entry below carries its recorded solubility.
Test: Approximate solubility of starting material at RT in 20 solvents
Assay type: physicochemical
Settings: organic solvent or mixture, Acetone

{"columns": ["COMPOUND", "solubility"],
 "data": [
  ["CCCCC1(CCCC)CS(=O)(=O)c2ccc(N(C)C)cc2[C@@H](c2ccc(O)cc2)[C@H]1O [Formula II]", "26 to 52 mg/mL"]
]}

Exercise: Consider the compound shown here: CCCCC1(CCCC)CS(=O)(=O)c2ccc(N(C)C)cc2[C@@H](c2ccc(OC)cc2)[C@H]1O [Formula I] What is its recorded solubility?
Key: > 54 mg/mL

====

Experiment: Approximate solubility of starting material at RT in 20 solvents
Assay type: physicochemical
Settings: organic solvent or mixture, n-Heptane
We begin with a simple list: items and their reported solubility.

{"columns": ["SMILES_INPUT", "solubility"],
 "data": [
  ["CCCCC1(CCCC)CS(=O)(=O)c2ccc(N(C)C)cc2[C@@H](c2ccc(OC)cc2)[C@H]1O", "< 2800 µg/mL"]
]}

Exercise: // lookup solubility for CCCCC1(CCCC)CS(=O)(=O)c2ccc(N(C)C)cc2[C@@H](c2ccc(O)cc2)[C@H]1O
Key: < 2000 µg/mL

====

Test: Approximate solubility of starting material at RT in 20 solvents
Assay type: physicochemical
Conditions: organic solvent or mixture, ACN
OBSERVED_PROPERTY: solubility

{"columns": ["SMILES_INPUT", "solubility"],
 "data": [
  ["CCCCC1(CCCC)CS(=O)(=O)c2ccc(N(C)C)cc2[C@@H](c2ccc(O)cc2)[C@H]1O", "2900 to 9700 µg/mL"]
]}

// next entry
Exercise: I have this compound here, CCCCC1(CCCC)CS(=O)(=O)c2ccc(N(C)C)cc2[C@@H](c2ccc(OC)cc2)[C@H]1O , and I need its recorded solubility.
Key: > 44000 µg/mL

====

Assay: Approximate solubility of starting material at RT in 20 solvents
Assay type: physicochemical
Details: organic solvent or mixture, DMSO
OBSERVED_PROPERTY: solubility

{"columns": ["COMPOUND", "solubility"],
 "data": [
  ["CCCCC1(CCCC)CS(=O)(=O)c2ccc(N(C)C)cc2[C@@H](c2ccc(OC)cc2)[C@H]1O [Formula I]", "> 50 mg/mL"]
]}

Now consider the entry below.
Exercise: Name the reported solubility value associated with the compound CCCCC1(CCCC)CS(=O)(=O)c2ccc(N(C)C)cc2[C@@H](c2ccc(O)cc2)[C@H]1O [Formula II]
Key: > 44 mg/mL

====

Reported solubility values for a set of compounds
Assay: Approximate solubility of starting material at RT in 20 solvents
Assay type: physicochemical
Details: organic solvent or mixture, Cyclohexane

{"columns": ["COMPOUND", "MEAS_VALUE"],
 "data": [
  ["CCCCC1(CCCC)CS(=O)(=O)c2ccc(N(C)C)cc2[C@@H](c2ccc(O)cc2)[C@H]1O [Formula II]", "< 2000 µg/mL"]
]}

Consider the record given below.
Exercise: Given the entry CCCCC1(CCCC)CS(=O)(=O)c2ccc(N(C)C)cc2[C@@H](c2ccc(OC)cc2)[C@H]1O [Formula I] , report its measured solubility.
Key: < 2000 µg/mL

====

Assay: Approximate solubility of starting material at RT in 20 solvents
Format: physicochemical
Settings: water, H2O
OBSERVED_PROPERTY: solubility

Exercise: Please look up its solubility: CCCCC1(CCCC)CS(=O)(=O)c2ccc(N(C)C)cc2[C@@H](c2ccc(OC)cc2)[C@H]1O
Key: < 2300 µg/mL

Exercise: Which solubility reading was recorded for the compound CCCCC1(CCCC)CS(=O)(=O)c2ccc(N(C)C)cc2[C@@H](c2ccc(O)cc2)[C@H]1O ?
Key: < 2000 µg/mL
